target: E3 ubiquitin-protein ligase XIAP (Homo sapiens); experiment: XIAP binders, primary screen, biophysical, small-molecule microarray, fluorescence 635 nm (AID 1181); settings: small-molecule microarray binding, higher = more signal;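 note: score merges 667 nm emission and signal to noise over triplicate slides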
Recorded composite z-score for the following molecules
// keep it numeric: no unit symbol after the value

# example entries with known answers
INSERT INTO results (molecule, quantitykind, obsvalue) VALUES
  ('CN(C)CCCC[C@@H]1NC(=O)[C@@H]2C[C@H](C(=O)NCCCCCCNC(=O)CS)[C@H](c3cccc(OCCO)c3)N2C1=O', 'composite z-score', -0.0052),
  ('NCCCC[C@@H]1NC(=O)[C@H]2C[C@@H](C(=O)NCc3ccc(F)cc3)[C@@H](c3ccc(O)cc3)N2C1=O', 'composite z-score', 0.226),
  ('C[N+](C)(C)CCCCCCNC(=O)[C@H]1C[C@H]2C(=O)NCC(=O)N2[C@H]1c1cccc(OCCO)c1', 'composite z-score', 0.0402),
  ('CC(C)CNC(=O)[C@@H]1c2ccccc2C(=O)N(C(C)C)[C@H]1c1ccc(CO)cc1', 'composite z-score', -0.0434);

Request: Determine its reported composite z-score: CCCCN1CC=CC23O[C@@H]4/C=C\CCC(C)OC(=O)C4[C@H]2C(=O)N(C(C)CO)[C@@H]3C1=O (some centres undefined)
Result: 0.0785

---

assay: inhibitors of hydroxyurea-induced Chk1 phosphorylation, primary screen, imaging, HeLa, phospho-Chk1 antibody, percent positive cells (AID 1186); details: hydroxyurea-induced phospho-Chk1 immunofluorescence imaging, higher = more signal
Recorded z-score for the following compounds
// keep it numeric: no unit symbol after the value

# example entries with known answers
INSERT INTO measurements (compound, quantitykind, obsvalue) VALUES
  ('NC(=O)[C@@]1(CCS(=O)(=O)c2ccccc2)COC(c2ccc(OCCCO)cc2)=N1', 'z-score', -0.511),
  ('COC(=O)[C@@]1(Cc2ccc(F)cc2)[C@H]2c3cc(C(=O)N(C)C)n(CCO)c3C[C@H]2CN1C(=O)c1ccccc1', 'z-score', -0.0514);

Request: Determine its reported z-score: C=CC(CO)NC(=O)OCC1c2ccccc2-c2ccccc21 (configuration not stated)
Result: 0.145

Request: Determine its reported z-score: COCCCNC(=O)[C@@H]1c2ccccc2C(=O)N(Cc2cc(C(F)(F)F)cc(C(F)(F)F)c2)[C@H]1c1ccc(CO)cc1
Result: -0.334

Request: Determine its reported z-score: COCCOC(=O)N1C(=O)[C@@]2(c3cc(C#Cc4ccc(OC)cc4)ccc31)[C@H](c1ccc(OCCO)cc1)N1[C@H](c3ccccc3)[C@H](c3ccccc3)OC(=O)[C@H]1[C@@H]2C(=O)N1CCCCCCC1
Result: -0.318

Request: Determine its reported z-score: C=CCC(OC(C)=O)[C@@H]1[C@@H](N(Cc2cc3ccccc3o2)C(=O)Cc2ccc(OC)cc2)c2cc(OCCCO)ccc2N1C(=O)Cc1ccc2ccccc2c1 (some centres not stated)
Result: 0.405

Request: Determine its reported z-score: CCN(CC)c1ccc(N2CC=CC34O[C@@H]5C=CCOC(=O)[C@@H]5[C@H]3C(=O)N(CCO)[C@@H]4C2=O)cc1 (some centres not stated)
Result: -0.52

---

experiment: basal S. cerevisiae growth modulation, no modifier, primary screen, OD600, strain BY4716, 24 h, basal condition (AID 1173); conditions: OD600, 24 h, higher = more signal, called active from +8 up or from −8 down
Recorded z-score for the following compounds
// keep it numeric: no unit symbol after the value

# example entries with known answers
INSERT INTO assay_data (smilestext, obsvalue) VALUES
  ('COc1ccc([Si](C)(C)[C@H]2[C@H](CCn3cc([C@H](O)c4ccccc4)nn3)O[C@@]3(C(=O)N(C)c4c(Br)cc(C)cc43)[C@@H]2C)cc1', -0.691),
  ('C=CCNC(=O)[C@H]1[C@@H]2C(=O)O[C@@H](c3ccccc3)[C@@H](c3ccccc3)N2[C@@H](c2ccccc2OCCO)[C@]12C(=O)N(C(=O)OCCOC)c1ccccc12', 1.52);

Consider the record given below.
Request: Determine its reported z-score: COCCn1c(C(=O)N2CCCC2)cc2c1C[C@H]1CN(C(=O)c3ccccc3)[C@@](Cc3ccccc3)(C(=O)OC)[C@@H]21
Result: 0.859

---

molecular target: Alpha-bungarotoxin (Bungarus multicinctus) (UniProt P60615); assay: alpha-bungarotoxin binders on microarray, profiling panel, artefact control for SMM control protein annotation, biochemical, small-molecule microarray, Alexa647 label, 635/667 nm fluorescence (AID 1117); details: alpha-BTX-A647 binding fluorescence, higher = more signal
Sequence (P60615 whole entry, looked up): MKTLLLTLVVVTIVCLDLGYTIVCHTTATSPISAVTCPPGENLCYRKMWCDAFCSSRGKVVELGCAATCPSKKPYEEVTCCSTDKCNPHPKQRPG
Response key: 1.0 means composite z-score >= 0.3; 0.0 means composite z-score < 0.3.

Completed entries (count: 3):
INSERT INTO measurements (compound, assignedcategory) VALUES
  ('O=C1OCCC/C=C\[C@H]2OC34C=CCN(Cc5ccccc5)C(=O)[C@H]3N(CCCCCO)C(=O)[C@@H]4C12 (stereo partly drawn)', 0.0),
  ('CC(C)CNC(=O)[C@@H]1c2ccccc2C(=O)N(Cc2ccccc2Cl)[C@H]1c1ccc(CO)cc1', 0.0),
  ('COCCOC(=O)N1C(=O)[C@@]2(c3cc(C#CCNC(N)=O)ccc31)[C@H](C(=O)NC[C@H](O)c1ccccc1)[C@H]1C(=O)O[C@H](c3ccccc3)[C@H](c3ccccc3)N1[C@@H]2c1ccc(OCCO)cc1', 1.0);

Request: Check if composite z-score >= 0.3 (inclusive). Item: NCCCC[C@@H]1NC(=O)[C@H]2C[C@@H](C(=O)NCc3ccc(F)cc3)[C@@H](c3cccc(OCCO)c3)N2C1=O
Result: 1.0

Request: Check if composite z-score >= 0.3 (inclusive). Item: O=C1N(CCS(=O)(=O)c2ccccc2)c2ccccc2[C@@H]2OC(c3ccc(OCCCO)cc3)=N[C@]12CCS(=O)(=O)c1ccccc1
Result: 1.0

Request: Check if composite z-score >= 0.3 (inclusive). Item: CCN(CC)c1ccc(N2CC=CC34O[C@@H]5C=CCOC(=O)[C@@H]5[C@H]3C(=O)N(CCO)[C@@H]4C2=O)cc1 (stereo partly drawn)
Result: 0.0

Request: Check if composite z-score >= 0.3 (inclusive). Item: C=CC[C@]1(C(=O)NCc2ccccc2)COC(c2ccc(OCCCO)cc2)=N1
Result: 1.0

Request: Check if composite z-score >= 0.3 (inclusive). Item: CCOC(=O)C[C@H]1[C@H](OC(=O)c2ccc(-c3ccccc3)cc2)[C@@H](NC(=O)c2ccc3ccccc3c2)c2cc(OCCCO)ccc2N1C(=O)c1ccccc1
Result: 1.0

Request: Check if composite z-score >= 0.3 (inclusive). Item: NC(=O)N1C(=O)C2C(C1=O)C1C=C(CCCO)C2C(c2ccc(CN3CCCC3)cc2)N1Cc1cccc(OC(F)(F)F)c1 (stereo not drawn)
Result: 1.0

Request: Check if composite z-score >= 0.3 (inclusive). Item: CCCC[C@H]1OB(O)C[C@H]2C1=C(COC)C[C@H]1C(=O)C=CC(=O)[C@H]12
Result: 1.0

Request: Check if composite z-score >= 0.3 (inclusive). Item: C=CCOC(=O)[C@H]1[C@@H]2C(=O)O[C@@H](c3ccccc3)[C@@H](c3ccccc3)N2[C@@H](c2ccc(OCCOC(=O)[C@H]3C[C@H]4C(=O)NCC(=O)N4[C@H]3c3ccc(O)cc3)cc2)[C@]12C(=O)Nc1ccc(I)cc12
Result: 0.0

Request: Check if composite z-score >= 0.3 (inclusive). Item: COc1ccc(C#Cc2ccc3c(c2)[C@]2(C(=O)N3)[C@H](c3ccc(OCCO)cc3)N3[C@H](c4ccccc4)[C@H](c4ccccc4)OC(=O)[C@H]3[C@@H]2C(=O)O)cc1
Result: 1.0

---

assay: basal RPMI8226 viability, no added stimulus, profiling panel, cell-based, calcein-AM fluorescence, 48 h, PK04 Diversity Set (AID 1166); conditions: RPMI8226 myeloma viability, higher = more signal;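 note: cells grown under basal conditions without added stimulus; test concentration not given here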
Threshold -0.5: z-score strictly smaller gives 1, otherwise 0.

Completed entries (count: 10):
INSERT INTO assay_data (compound, assignedcategory) VALUES
  ('CCCCCN1CC=CC23O[C@@H]4C=CCOC(=O)[C@@H]4[C@H]2C(=O)N(CCCCCO)[C@@H]3C1=O (stereo partly drawn)', 1),
  ('CCCC[C@@H](O)C1=C(COC)Cn2c(=O)n(-c3ccccc3)c(=O)n2[C@H]1CO', 0),
  ('COc1ccc(NC(=O)O[C@H]2[C@H](OC(=O)Nc3ccc4c(c3)OCO4)[C@H](OC(=O)Nc3ccc4c(c3)OCO4)[C@@H](OC)O[C@@H]2CO)cc1', 1),
  ('O=C1C2C=CC(C(O)c3cccc(O)c3)N(Nc3ccccc3F)C2C(=O)N1c1ccccc1 (stereo not drawn)', 1),
  ('NCCCC[C@@H]1NC(=O)[C@H]2C[C@@H](C(=O)NCc3ccc(F)cc3)[C@@H](c3ccc(O)cc3)N2C1=O', 0),
  ('O=C1O[C@H](c2ccccc2)[C@H](c2ccccc2)N2[C@H]1[C@@H](C(=O)NC[C@H](O)c1ccccc1)[C@]1(C(=O)Nc3ccc(C#CCCO)cc31)[C@H]2c1ccccc1OCCO', 1),
  ('COc1ccc(CCNC(=O)[C@@H]2c3ccccc3C(=O)N(CC34CC5CC(CC(C5)C3)C4)[C@H]2c2ccc(CO)cc2)cc1', 1),
  ('COCCOC(=O)N1C(=O)[C@@]2(c3cc(C#CCC(C(=O)OC)C(=O)OC)ccc31)[C@H](C(=O)N1CCCCCCC1)[C@H]1C(=O)O[C@H](c3ccccc3)[C@H](c3ccccc3)N1[C@@H]2c1ccccc1OCCO', 1),
  ('CCOC(=O)C[C@H]1[C@H](OC(=O)c2cc3ccccc3oc2=O)[C@@H](NC(=O)C2CCCCC2)c2cc(OCCCO)ccc2N1C(=O)Cc1ccc(OC)cc1', 0),
  ('O=C1C2C=CC(C(O)c3cccs3)N(Nc3ccccc3)C2C(=O)N1c1ccccc1 (stereo not drawn)', 0);

Request: Answer whether the compound C[C@H]1C2[C@H](Cc3ccccc3)NC(=O)[C@]23C(=O)NCC(=O)N2CCC[C@H]2C(=O)NC/C=C\C/C=C/C3[C@@H]2O[C@]12C (stereo partly drawn) has z-score strictly less than -0.5
Result: 1

Request: Answer whether the compound CC(C)C[C@@H]1NC(=O)C([C@@H](C)OCc2ccccc2)NC(=O)[C@@]23C(=O)N[C@@H](Cc4ccccc4)C2[C@H](C)[C@@]2(C)O[C@H]2C3/C=C/CC/C=C/CNC1=O (stereo partly drawn) has z-score strictly less than -0.5
Result: 1

Request: Answer whether the compound COCCOC(=O)N1C(=O)[C@@]2(c3cc(C#CCCO)ccc31)[C@H](c1ccc(O)cc1)N1[C@H](c3ccccc3)[C@H](c3ccccc3)OC(=O)[C@H]1[C@@H]2C(=O)N1CCc2cc(OC)c(OC)cc2C1 has z-score strictly less than -0.5
Result: 0
